Cited source for all entries: paper PMC12905490

Target or test system: T1, sLgBiT-Dr-GPR25 (zebrafish (Danio rerio), UniProt A0AC58GT18 1-377)
T1 construct: G protein-coupled receptor 25 (GPR25), zebrafish (Danio rerio); In one experiment it was coexpressed with human TPST1 and TPST2; sulfation of the N-terminal tyrosines is only called potential; The chemotaxis assays used untagged Dr-GPR25 (PB-TRE/Dr-GPR25); also called N-terminally secretory LgBiT-fused Dr-GPR25; zebrafish GPR25; source: HEK293T, transfected (PB-TRE/sLgBiT-Dr-GPR25), Dox-induced, …
T1 sequence (looked up): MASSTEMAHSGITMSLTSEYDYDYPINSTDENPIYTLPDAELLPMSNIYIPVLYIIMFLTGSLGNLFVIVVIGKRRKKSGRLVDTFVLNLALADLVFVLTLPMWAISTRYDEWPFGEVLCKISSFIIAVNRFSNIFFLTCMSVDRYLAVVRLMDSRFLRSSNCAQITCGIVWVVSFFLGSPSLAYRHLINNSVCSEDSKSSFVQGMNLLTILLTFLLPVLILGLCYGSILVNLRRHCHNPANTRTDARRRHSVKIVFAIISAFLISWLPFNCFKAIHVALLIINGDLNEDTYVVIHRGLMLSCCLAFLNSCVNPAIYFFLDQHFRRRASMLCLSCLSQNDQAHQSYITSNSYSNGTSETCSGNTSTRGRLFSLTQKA
Test protocol: split reporter (BiFC, NanoBiT); NanoBiT-based homogeneous saturation binding as before, but sLgBiT-Dr-GPR25 coexpressed with human TPST1 and TPST2 in HEK293T cells; serum-free DMEM, 0.1% BSA, 0.01% Tween-20, room temperature ~1 h
Particulars: one partner purified
Experimental endpoint: Kd

Enquiry: Which measured Kd value corresponds to 6 × His-SmBiT-Dr-CXCL17-like (ligand, zebrafish (Danio rerio), UniProt A0AB13AB19 26-95, looked up, Dr-CXCL17-like, zebrafish (Danio rerio, Tübingen strain), mature peptide of 70 amino acids (residues 26-95 of the 95-residue precursor; predicted signal peptide of 25 residues left out); also called tracer; SmBiT-tagged tracer; not shown: His6, N-terminal, kept; SmBiT, N-terminal, kept) QRRSMKQSAVCGCKLYPDKGLKCTKRPNPKSRDEYYEILKCICRDTQIFSKSSRKEYLKRCNKFYPSLPL ?
Return: 7.1 nM
